# Test system: 435261-313-R-J1-PDC tumor spheroid viability;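 note: spheroids exposed to compounds for 7 days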
# Assay procedure: Anticancer human tumor 435261-313-R-J1-PDC patient-derived colon adenocarcinoma cell line growth inhibition [PI3K]
# Conditions used: second compound 0.1 µM; first compound 1 µM; active compounds read low; spheroids with HUVEC and MSC
// returns False unless viability, T/C is strictly below 30%, in which case True

Study these solved cases before continuing.
Qu. Take the compound CC(C)NCC(C(=O)N1CCN(c2ncnc3c2C(C)CC3O)CC1)c1ccc(Cl)cc1 (stereo not given) + CC(Nc1ccc2c(c1)OCCn1cc(N3C(=O)OCC3C(F)F)nc1-2)C(N)=O and say whether its viability, T/C is less than 30%.
Ans. False

Qu. Take the compound C=CC(=O)N1CCN(c2nc(=O)n(-c3c(C)ccnc3C(C)C)c3nc(-c4c(O)cccc4F)c(F)cc23)C(C)C1 (stereo not given) + Cc1nc(NC(=O)N2CCCC2C(N)=O)sc1-c1ccnc(C(C)(C)C(F)(F)F)c1 and say whether its viability, T/C is less than 30%.
Ans. False

Further cases:
Qu. Take the compound CC1(C)CCC(CN2CCN(c3ccc(C(=O)NS(=O)(=O)c4ccc(NCC5CCOCC5)c([N+](=O)[O-])c4)c(Oc4cnc5[nH]ccc5c4)c3)CC2)=C(c2ccc(Cl)cc2)C1 + CC(Nc1ncnc2nc[nH]c12)c1cc2cccc(Cl)c2c(=O)n1-c1ccccc1 and say whether its viability, T/C is less than 30%.
Ans. False

Qu. Take the compound C[C@@H](NC(=O)c1ncnc(N)c1Cl)c1ncc(C(=O)Nc2cc(C(F)(F)F)c(Cl)cn2)s1 + COc1c(OCCCN2CCOCC2)ccc2c3n(c(=NC(=O)c4cnc(N)nc4)nc12)CCN3 and say whether its viability, T/C is less than 30%.
Ans. True

Qu. Take the compound CC1(C)CCC(CN2CCN(c3ccc(C(=O)NS(=O)(=O)c4ccc(NCC5CCOCC5)c([N+](=O)[O-])c4)c(Oc4cnc5[nH]ccc5c4)c3)CC2)=C(c2ccc(Cl)cc2)C1 + COc1c(OCCCN2CCOCC2)ccc2c3n(c(=NC(=O)c4cnc(N)nc4)nc12)CCN3 and say whether its viability, T/C is less than 30%.
Ans. True
